Tested on: HCC-2998 colon
Experiment: NCI tumour cell line growth inhibition, 48 h
Quick reference for GI50 among some compounds

- smiles.code: "CCOC(=O)C1=C(Nc2ccc(OC)cc2)C(N)=NC1=N"
  GI50: "3.94 µM"
- smiles.code: "CC(=O)/C=C(/C)[O-].CC(=O)/C=C(/C)[O-].CC(=O)[CH-]C(C)=O.CC(=O)[CH-]C(C)=O.[Zr+4]"
  GI50: "> 100 µM"
- smiles.code: "Cc1nnc(N/N=C/c2ccc([N+](=O)[O-])o2)[nH]c1=O"
  GI50: "1.14 µM"
- smiles.code: "Nc1nc(-c2ccc3c(c2)/C(=C\\c2cc(Br)c(O)c(Br)c2)C(=O)N3)cs1"
  GI50: "17.8 µM"
- smiles.code: "COC(=O)[C@]1(C)CCC[C@@]2(C)C3=C(CC[C@H]12)C[C@@H](CC(OC(C)=O)OC(C)=O)[C@@H](C)C3"
  GI50: "9.32 µM"

###

Tested on: M14 melanoma
Test: NCI tumour cell line growth inhibition, 48 h

- compound: "CCN(CC)CCOc1nc2ccccc2c2c1-c1ccc(OC)cc1C2=O"
  TGI: "3 µM"
- compound: "O=C1C(Cl)N(c2ccc([N+](=O)[O-])cc2)C1c1c[nH]c2ccccc12 (configuration not stated)"
  TGI: "> 100 µM"
- compound: "CN1C(=O)N(C)C2C1NC(=S)N2/N=C/C=C/c1ccccc1[N+](=O)[O-] (configuration not stated)"
  TGI: "> 100 µM"
- compound: "Cc1ccc2ccccc2c1CSc1nc(N)nc2c1ncn2CC(C)C"
  TGI: "> 80.8 µM"
- compound: "[N-]=[N+]=C(C(=O)CN1CCCC1=O)S(=O)(=O)c1ccccc1"
  TGI: "> 100 µM"
- compound: "O=C(CSc1nc2ccc(I)cc2c(=O)n1Cc1ccccc1)Nc1ccccc1"
  TGI: "> 100 µM"
- compound: "COc1ccc(C(C2=C(O)CC(C)OC2=O)C2=C(O)CC(C)OC2=O)cc1 (configuration not stated)"
  TGI: "> 100 µM"

###

Test system: SK-MEL-28 melanoma
Experiment: NCI tumour cell line growth inhibition, 48 h
Binary classification by TGI, with 6 µM as an inclusive lower bound for Yes; all other cases are No.

- molecule: "O=C(CCCCCNC(=O)c1ccc(Cl)cc1)NO"
  label: "Yes"
- molecule: "COCC(C#N)NC1CC(OC2CC(O)(C(=O)CO)Cc3c(O)c4c(c(O)c32)C(=O)c2c(OC)cccc2C4=O)OC(C)C1O (stereo not given)"
  label: "No"
- molecule: "CC1=CC2(C)/C=C(C)/C=C\\CC(O)/C=C3/C=CC(=C4C(=O)OC2(CC1C)C4=O)OC3 (stereo not given)"
  label: "No"
- molecule: "C=CCC1(CN(C)C)CC/C(=C\\c2ccc3c(c2)OCO3)C1=O (stereo not given)"
  label: "Yes"
- molecule: "CSc1ccc(N2C(=O)C3c4[nH]c5ccccc5c4C4CCC(C(C)(C)C)CC4C3C2=O)cc1 (stereo not given)"
  label: "Yes"
- molecule: "CC(C)N1CC2CC(CN(C(=O)c3ccc(Cl)cc3)C2)C1"
  label: "Yes"
- molecule: "O=S(=O)(O)c1ccc(O)c(N=Nc2c(O)ccc3ccccc23)c1"
  label: "Yes"
- molecule: "O=c1c2cccnc2oc2c(Cl)cc(-c3nn[nH]n3)cc12"
  label: "Yes"
- molecule: "CCC(=O)OCOc1ccc(/C=C2\\CCC(CN(C)C)C2=O)cc1 (stereo not given)"
  label: "Yes"
